molecular target: T1, human ACVR2A (human, UniProt P27037 20-135, limits assumed); assay: ELISA; also: test concentration or dose not given here
T1 construct: coated antigen of the initial ELISA; also called activin receptor, type II A
T1 sequence (P27037 20-135 limits assumed): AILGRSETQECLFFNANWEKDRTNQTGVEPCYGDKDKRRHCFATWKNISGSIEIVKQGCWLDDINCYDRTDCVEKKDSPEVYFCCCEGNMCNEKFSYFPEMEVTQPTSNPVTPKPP
Listing: optical density of selected binders
Expressed in OD, but write only the number.

Worked set:
375_F08 (antibody, V domains shown, Group III) VH: EVQLLESGGGLVQPGGSLRLSCAASGFTFSSYGMNWVRQAPGKGLEWVSSINYNSGYKSYADSVKGRFTISRDNSKNTLYLQMNSLRAEDTAVYYCARGANWHDTHLDYWGQGTLVTVSS VL: DIQMTQSPSSLSASVGDRVTITCRASQSILSYLNWYQQKPGKAPKLLIYAATSRHSGVPSRFSGSGSGTDFTLTISSLQPEDFATYYCQQSYDNPLTFGGGTKVEIK
3.5
368_A03 (antibody, V domains shown, Group III) VH: EVQLLESGGGLVQPGGSLRLSCAASGFTFSSYSMNWVRQAPGKGLEWVSGINYNGGYTGYADSVKGRFTISRDNSKNTLYLQMNSLRAEDTAVYYCARGANWHDTHLDYWGQGTLVTVSS VL: DIQMTQSPSSLSASVGDRVTITCRASQSIISYLNWYQQKPGKAPKLLIYAVTSRASGVPSRFSGSGSGTDFTLTISSLQPEDFATYYCQQSYENPLTFGGGTKVEIK
2.83

In the following, a different binder is considered.
Entry 373_C03 (antibody, V domains shown, Group III) VH: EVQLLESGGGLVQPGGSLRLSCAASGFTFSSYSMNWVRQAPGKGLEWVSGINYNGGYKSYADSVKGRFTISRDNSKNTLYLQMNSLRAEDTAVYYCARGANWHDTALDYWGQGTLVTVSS VL: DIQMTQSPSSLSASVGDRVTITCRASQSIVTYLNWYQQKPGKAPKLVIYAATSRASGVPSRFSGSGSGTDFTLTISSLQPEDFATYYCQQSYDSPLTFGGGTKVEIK — recorded optical density = 3.69
